Origin of measurements: patent US20170022201A1

Biological target: EF2K (Homo sapiens)
Construct: host or cells: LN-229 glioblastoma cell lysate
Sequence (O00418 1-725): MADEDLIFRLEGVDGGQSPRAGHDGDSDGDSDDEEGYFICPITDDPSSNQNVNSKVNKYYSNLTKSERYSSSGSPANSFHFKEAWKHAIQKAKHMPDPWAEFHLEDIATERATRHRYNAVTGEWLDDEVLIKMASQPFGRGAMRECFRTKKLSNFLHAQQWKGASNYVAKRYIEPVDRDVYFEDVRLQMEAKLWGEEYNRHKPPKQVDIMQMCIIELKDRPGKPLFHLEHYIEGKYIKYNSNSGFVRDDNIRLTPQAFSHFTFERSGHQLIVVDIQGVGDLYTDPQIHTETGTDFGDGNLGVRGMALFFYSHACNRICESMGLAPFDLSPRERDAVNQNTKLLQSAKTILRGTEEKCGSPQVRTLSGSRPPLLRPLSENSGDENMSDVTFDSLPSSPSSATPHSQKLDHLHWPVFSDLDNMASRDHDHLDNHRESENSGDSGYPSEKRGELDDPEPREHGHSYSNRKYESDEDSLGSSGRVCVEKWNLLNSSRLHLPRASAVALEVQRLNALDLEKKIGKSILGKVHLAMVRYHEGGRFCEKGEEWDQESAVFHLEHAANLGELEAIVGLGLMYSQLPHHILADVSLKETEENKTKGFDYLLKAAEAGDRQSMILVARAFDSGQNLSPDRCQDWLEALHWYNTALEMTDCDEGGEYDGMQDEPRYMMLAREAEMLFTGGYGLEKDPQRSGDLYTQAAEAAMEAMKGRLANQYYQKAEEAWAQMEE
Test: Biochemical EF2K lysate-based kinase assay (AlphaLISA p-eEF2 Thr56)
Conditions: LN-229 cell lysates, 10 mM ATP, pH 6.6; pIC50 = -log IC50 (M); read-out: eEF2K_C_alphalisa pIC50 (converted)
property: IC50 (M)

A. O=C1CN2CC3CCC2CN3Cc2cccc(c2)Nc2cc(ccn2)-c2cnc(nc2)NCCCN1 (single isomer, unassigned) [Compound 26]
B. O=C1NCCCNc2ncc(cn2)-c2ccnc(c2)Nc2cccc(c2)CN2CCN(CC2)C12CC2
Which numeric IC50 is bigger, that of A or that of B ? Reply with the label of the item you choose.
A

I. O=C1NCCC2CC(O)CN2c2ncc(cn2)-c2ccnc(c2)Nc2cccc(c2)CN2CCN(CC2)C12CC2 (stereo not drawn) [Compound 56]
II. O=C1NCCCNc2ncc(cn2)-c2ccnc(c2)Nc2cccc(c2)CN2CCN(CC2)C12COC2
III. COC(=O)C1CCNC(=O)CN2CCN(CC2)Cc2cccc(c2)Nc2cc(ccn2)-c2cnc(nc2)N1 (stereo not drawn) [Compound 116]
Sequence the entries by IC50, beginning with the highest number. Rank them, then answer with their labels in that order.
III, II, I

P. NS(=O)(=O)NC1CC2CCNC(=O)C3(CC3)N3CCN(CC3)Cc3cccc(c3)Nc3cc(ccn3)-c3cnc(nc3)N2C1 (stereo not drawn)
Q. O=C1CN2CCN(CC2)Cc2cc(ccc2F)Nc2cc(ccn2)-c2cnc(nc2)N2CC(O)CC2CCN1 (stereo not drawn)
Which numeric IC50 is bigger, that of P or that of Q ? Reply with the label of the item you choose.
P

1. O=C1CN2CCN(CC2)Cc2cccc(c2)Nc2cc(ccn2)-c2cnc(nc2)N2CCC2CCN1 (stereo not drawn)
2. O=C1NCCC2CC(O)CN2c2ncc(cn2)-c2ccnc(c2)Nc2cccc(c2)CN2CCN(CC2)C12COC2 (stereo not drawn) [Compound 64]
Which numeric IC50 is bigger, that of 1 or that of 2 ? Reply with the label of the item you choose.
1

I. O=C1CN2CC(C2)Oc2cccc(c2)Nc2cc(ccn2)-c2cnc(nc2)NCCCN1
II. NS(=O)(=O)NC1CC2CCNC(=O)CN3CCN(CC3)Cc3cccc(c3)Nc3cc(ccn3)-c3cnc(nc3)N2C1 (stereo not drawn)
# return whichever of I and II has the smaller IC50 Reply with the label of the item you choose.
I
(I: 1.26e-07 M, II: 3.39e-07 M)

a. CN1CCCN(C)c2ccc(cn2)-c2ccnc(c2)Nc2cccc(c2)CN2CCN(CC2)CC1=O
b. O=C1CN2CCCC(CC2)Oc2cccc(c2)Nc2cc(ccn2)-c2cnc(nc2)NCCCN1 (stereo not drawn)
# return whichever of a and b has the smaller IC50 Reply with the label of the item you choose.
b
(b: 6.61e-08 M, a: 5.13e-07 M)

---

Target: PIK3C3 lipid kinase (Homo sapiens, UniProt Q8NEB9)
Sequence (Q8NEB9 whole entry): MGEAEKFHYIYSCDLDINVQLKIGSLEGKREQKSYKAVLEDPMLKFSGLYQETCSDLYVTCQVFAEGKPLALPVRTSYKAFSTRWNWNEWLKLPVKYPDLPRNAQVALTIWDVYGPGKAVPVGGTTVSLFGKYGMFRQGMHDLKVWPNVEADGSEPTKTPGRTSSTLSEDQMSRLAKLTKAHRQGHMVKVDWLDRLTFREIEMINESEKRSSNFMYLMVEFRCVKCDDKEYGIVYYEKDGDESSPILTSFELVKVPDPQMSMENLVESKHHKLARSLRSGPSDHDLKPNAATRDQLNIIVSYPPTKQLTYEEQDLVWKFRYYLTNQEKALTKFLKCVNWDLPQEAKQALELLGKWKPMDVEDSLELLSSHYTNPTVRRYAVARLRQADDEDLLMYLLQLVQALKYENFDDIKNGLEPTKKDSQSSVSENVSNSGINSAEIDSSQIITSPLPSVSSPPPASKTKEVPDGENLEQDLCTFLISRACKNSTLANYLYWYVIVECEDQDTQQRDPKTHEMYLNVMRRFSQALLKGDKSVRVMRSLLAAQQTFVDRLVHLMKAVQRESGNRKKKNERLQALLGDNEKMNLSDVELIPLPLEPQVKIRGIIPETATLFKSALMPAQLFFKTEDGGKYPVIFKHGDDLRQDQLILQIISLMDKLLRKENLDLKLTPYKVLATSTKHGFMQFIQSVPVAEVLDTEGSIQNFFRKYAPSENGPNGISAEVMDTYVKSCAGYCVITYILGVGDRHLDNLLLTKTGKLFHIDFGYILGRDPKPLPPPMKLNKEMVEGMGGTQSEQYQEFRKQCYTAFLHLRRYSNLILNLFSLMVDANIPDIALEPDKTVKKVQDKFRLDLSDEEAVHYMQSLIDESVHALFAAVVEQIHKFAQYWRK
Test: Biochemical Vps34 lipid kinase assay (ADP-Glo)
Conditions: serial dilution 10 μM to 0.3 nM; 20 μM ATP; pIC50 = -log IC50 (M)
property: IC50 (M)

Below are worked cases with known answers.
molecule="O=C1NCCC2CC(O)CN2c2ncc(cn2)-c2ccnc(c2)Nc2cccc(c2)CN2CCN(CC2)C12CC2 (centres unmarked) [Compound 57]" readout_value=5.01e-06
molecule="CC1CN2CCN1Cc1cccc(c1)Nc1cc(ccn1)-c1cnc(nc1)NCCCNC(=O)C2 (centres unmarked) [Compound 36]" readout_value=7.24e-07

I. O=C1CN2CCN(CC2)Cc2cccc(c2)Nc2cc(ccn2)-c2cnc(nc2)N2CC(O)CC2CCN1 (centres unmarked) [Compound 55]
II. O=C1CN2CC3CCC2CN3Cc2cccc(c2)Nc2cc(ccn2)-c2cnc(nc2)NCCCN1 (single isomer, unassigned) [Compound 26]
III. CC1(C)CN2CCN1CC(=O)NCCCNc1ncc(cn1)-c1ccnc(c1)Nc1cccc(c1)C2
IV. O=C1NCCCNc2ncc(cn2)-c2ccnc(c2)Nc2cccc(c2)NC2CCN(CC2)C12CC2
# rank by IC50, ascending (min first) Rank them, then answer with their labels in that order.
II, III, IV, I
(II: 6.61e-08 M, III: 1.74e-07 M, IV: 3.55e-07 M, I: 5.5e-07 M)

---

Molecular target: EF2K (Homo sapiens)
Construct: host or cells: LN-229 glioblastoma cell lysate
Sequence (O00418 1-725): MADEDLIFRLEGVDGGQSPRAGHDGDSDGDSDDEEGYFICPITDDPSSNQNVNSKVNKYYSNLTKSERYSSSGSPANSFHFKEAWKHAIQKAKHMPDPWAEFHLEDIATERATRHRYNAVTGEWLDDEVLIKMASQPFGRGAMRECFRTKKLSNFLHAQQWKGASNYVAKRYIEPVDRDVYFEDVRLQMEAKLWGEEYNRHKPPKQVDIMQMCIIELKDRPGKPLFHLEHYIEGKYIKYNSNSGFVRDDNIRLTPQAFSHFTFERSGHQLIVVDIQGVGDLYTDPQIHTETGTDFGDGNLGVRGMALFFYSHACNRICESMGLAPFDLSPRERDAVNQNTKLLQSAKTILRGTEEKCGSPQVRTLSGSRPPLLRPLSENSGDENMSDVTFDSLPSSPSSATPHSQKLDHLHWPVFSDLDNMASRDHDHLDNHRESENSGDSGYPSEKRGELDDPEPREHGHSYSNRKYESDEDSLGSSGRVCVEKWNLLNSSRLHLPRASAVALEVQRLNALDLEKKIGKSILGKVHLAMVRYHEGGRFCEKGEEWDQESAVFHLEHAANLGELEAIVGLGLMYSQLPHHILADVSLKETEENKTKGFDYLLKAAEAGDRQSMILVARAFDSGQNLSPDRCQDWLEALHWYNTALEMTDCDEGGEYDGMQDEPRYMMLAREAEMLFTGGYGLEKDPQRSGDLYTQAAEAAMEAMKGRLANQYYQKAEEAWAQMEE
Test: Biochemical EF2K lysate-based kinase assay (AlphaLISA p-eEF2 Thr56)
Details: LN-229 cell lysates, 10 mM ATP, pH 6.6; pIC50 = -log IC50 (M); read-out: eEF2K_C_alphalisa pIC50 (converted)
property: IC50 (M)

Below are worked cases with known answers.
molecule="NC1CC2CCNC(=O)CN3CCN(CC3)Cc3cccc(c3)Nc3cc(ccn3)-c3cnc(nc3)N2C1 (stereo not shown)" property=IC50 measure_unit=M readout_value=7.24e-08
molecule="O=C1CN2CCN(CC2)Cc2cccc(c2)Nc2cc(ccn2)-c2cnc(nc2)C2CCCN2CCN1 (single isomer, unassigned) [Compound 139]" property=IC50 measure_unit=M readout_value=7.59e-06
molecule=O=C1NCCCNc2ncc(cn2)-c2ccnc(c2)Nc2cccc(c2F)CN2CCN(CC2)C12CC2 property=IC50 measure_unit=M readout_value=3.98e-09
molecule="CC1c2cccc(c2F)Nc2cc(ccn2)-c2cnc(nc2)NCCCNC(=O)C2(CC2)N2CCN1CC2 (single isomer, unassigned) [Compound 12]" property=IC50 measure_unit=M readout_value=1.45e-07

a. O=C1CN2CCC(CC2)Oc2cccc(c2F)Nc2cc(ccn2)-c2cnc(nc2)NCCCN1
b. CN1c2cccc(c2)Nc2cc(ccn2)-c2cnc(nc2)NCCCNC(=O)CN2CCC1CC2
c. CN1CCCNc2ncc(cn2)-c2ccnc(c2)Nc2cccc(c2)CN2CCN(CC2)CC1=O
Sequence the entries by IC50, beginning with the highest number. Rank them, then answer with their labels in that order.
c, b, a
